Assay details: qHTS Assay for Inhibitors of Hepatitis C Virus (HCV)
Condition label: Huh7.5.1 HCVcc-Cre infection, luciferase reporter, 44 h; series mostly up to 41.8 µM
Excerpt: Hepatitis C virus (HCV) infects about 200 million people in the world. Many infected people progress to chronic liver disease including cirrhosis with a risk of developing liver cancer. To date, there is no effective vaccine for hepatitis C. Current therapy based on interferon is only effective in about half of the patients and is associated with significant adverse effects. The fraction of people with HCV who can complete a successful treatment is estimated to be no more than 10 percent. […]
The campaign covered roughly 340,000 compounds. About 12,000 (3.5%) were called active. Not shown: some 18% with an inconclusive outcome. The call rests on the fitted dose curve; in most records, active means well fitted inhibition curve with a large enough effect; inconclusive means small, poorly fitted or top-dose-only effect, or another doubt; inactive means no such curve, though single readings can be large or run the other way. Only a selection was taken, and actives are over-represented in it overall.
Answer with one of the outcomes t for active, f for inactive

These solved cases illustrate the format of a correct answer.
O=C(NCc1ccccc1)c1ccc(S(=O)(=O)Nc2cccc(C(F)(F)F)c2)cc1	f
NS(=O)(=O)c1cccc(NC(=O)CSc2nc3ccccc3n2-c2ccccc2)c1	f
NC(=O)NC(=O)CSc1nc2cc([N+](=O)[O-])ccc2n1-c1cccc(C(F)(F)F)c1	t
COC(=O)CC(CC(=O)OC)n1cccc1	f

Ask: State the result this test recorded for Cc1cc(NC(=O)CN2C(=O)NC(CC(C)C)C2=O)no1 (stereo not given) .
Result: f

----------
Assay details: qHTS Assay for Inhibitors of Hepatitis C Virus (HCV)
Condition label: Huh7.5.1 HCVcc-Cre infection, luciferase reporter, 44 h; series mostly up to 41.8 µM
About 12,000 (3.5%) of roughly 340,000 compounds were called active. Another 18% or so got no clear call; they are omitted. Calls come from the whole dose curve; as a rule, active = well fitted inhibition curve with a large enough effect; inconclusive = small, poorly fitted or top-dose-only effect, or another doubt; inactive = no such curve, though single readings can be large or run the other way. Only a selection was taken, and actives are over-represented in it overall.
Mark one answer only. Choices: label 1 for active, label 0 for inactive

Ask: Tell me the recorded outcome of this test for Cc1ccc(NC(=O)C/C(N)=N/O)cc1Cl .
Result: label 0

Ask: Per the records of this test, what outcome belongs to CN(C)c1cc[n+](Cc2ccccc2)cc1 ?
Result: label 1

Ask: Given O=C(CC(O)(C(F)(F)F)C(F)(F)F)Nc1ccc(Cl)c(Cl)c1 , state the outcome it received in this test.
Result: label 1

Ask: Given Cc1ccc(C(=O)CCC(=O)N(C)CC(=O)Nc2c(Cl)cccc2Cl)cc1 , state the outcome it received in this test.
Result: label 0

Ask: Please indicate how the test categorized O=C(OCc1cc(=O)n2ccsc2n1)C1(c2ccc(Cl)cc2)CC1 .
Result: label 0

----------
Assay details: qHTS Assay for Inhibitors of Hepatitis C Virus (HCV)
Condition label: Huh7.5.1 HCVcc-Cre infection, luciferase reporter, 44 h; series mostly up to 41.8 µM
Hit rate of the full screen: of about 340,000 compounds, about 12,000 (3.5%) were called active. Roughly 18% stayed inconclusive and do not appear here. Calls follow the shape of the dose curve; as a rule, active = well fitted inhibition curve with a large enough effect; inconclusive = small, poorly fitted or top-dose-only effect, or another doubt; inactive = no such curve, though single readings can be large or run the other way. For the sample, actives were picked, then their nearest neighbours and some compounds at random.
Output constraint: value belongs to active, inactive

The following molecules have reported results that may help.
O=S(=O)(Nc1ncnc2sccc12)c1cccc(F)c1	inactive
CSCCC(NC(=O)c1ccco1)C(=O)NCCc1ccc(F)cc1 (stereo unspecified)	inactive
Cc1ccc(NC(=O)CN2CCc3ccccc3C2)cc1	inactive
O=S(=O)(Nc1ccc(-n2cnnn2)cc1)c1ccc(Cl)cc1	inactive
COC(=O)[C@H](C)NC(=O)Nc1ccc(OC(F)(F)F)cc1	inactive
O=C(c1ccc(F)cc1)N1CCC(C(=O)N2CCN(S(=O)(=O)c3ccccc3Br)CC2)CC1	inactive
CC(Sc1nnc(-c2cccs2)n1C1CC1)C(=O)NCC1CCCO1 (stereo unspecified)	inactive
O=C(Nc1ccc(OC(F)(F)F)cc1)c1ccc2c(c1)no[n+]2[O-]	active

Ask: Record lookup: outcome of this test for CCC(=O)c1ccc(OCC(=O)N(CC)CC2COc3ccccc3O2)cc1 (stereo unspecified) ?
Result: inactive

Ask: Tell me the recorded outcome of this test for O=c1[nH]c(=S)[nH]c(O)c1/C=C1\C=Nc2ccccc21 .
Result: inactive

Ask: Recorded test call requested for O=C(CN1CCc2cc3c(cc2C1)OCCCO3)Nc1ccccc1
Result: active

----------
Assay details: qHTS Assay for Inhibitors of Hepatitis C Virus (HCV)
Condition label: Huh7.5.1 HCVcc-Cre infection, luciferase reporter, 44 h; series mostly up to 41.8 µM
About 12,000 (3.5%) of roughly 340,000 compounds were called active. Not shown: some 18% with an inconclusive outcome. The call rests on the fitted dose curve; in most records, active means well fitted inhibition curve with a large enough effect; inconclusive means small, poorly fitted or top-dose-only effect, or another doubt; inactive means no such curve, though single readings can be large or run the other way. For the sample, actives were picked, then their nearest neighbours and some compounds at random.
Return exactly one item of Y = active, N = inactive

Here are 4 compounds together with their reported answers.
O=C(Nc1ccc(N2C(=O)c3cccc4cccc(c34)C2=O)cc1)c1ccc(N2CCCCC2)c([N+](=O)[O-])c1	N
CC(NC(=O)c1ccc(N2CCNCC2)c([N+](=O)[O-])c1)C12CC3CC(CC(C3)C1)C2 (stereo not given)	N
CSc1ncnc2sc(C)c(C)c12	N
O=C(Nc1cccc(-c2cccc(Cl)c2)c1)C1CCN(C2CCC2)CC1	Y

Now consider a different compound.
Ask: Query: recorded result category for O=C(O)c1ccc(Cn2c(=S)[nH]c3cc(Cl)ccc3c2=O)cc1 in this test
Result: N

----------
Assay details: qHTS Assay for Inhibitors of Hepatitis C Virus (HCV); further: potency means the concentration at half of the fitted maximal effect
Condition label: Huh7.5.1 HCVcc-Cre infection, luciferase reporter, 44 h; series mostly up to 41.8 µM
The campaign covered roughly 340,000 compounds. About 12,000 (3.5%) were called active. Inconclusive results (about 18%) are left out. The sample as a whole holds a higher share of actives than the screen did.
Parameter: Potency

# example entries with known answers
CCOc1ccc(NC(=O)CSc2nncn2C)cc1	inactive
CCN(CC)CCCNC(=O)Cn1cnc2sc(C)c(S(=O)(=O)N3CCN(c4ncccn4)CC3)c2c1=O	inactive
O=C(CSc1nccn1-c1cccc(F)c1)NC1CCCC1	inactive
O=C(CN1C(=O)NC2(CCOc3ccccc32)C1=O)Nc1cccc([N+](=O)[O-])c1 (stereo not given)	inactive
CC(=O)Nc1ccc(-c2csc(NC(=O)Nc3ccccc3)n2)cc1	10 µM (active)
CCCCN1C(=O)C(=O)N(CC(=O)Nc2cccc(C(C)=O)c2)C1=O	inactive

Ask: Return reported Potency; argument: CC(=O)Nc1ccc(-c2csc(NC=C3C(=O)OC(C)(C)OC3=O)n2)cc1
Result: inactive

Ask: Report Potency for CSCCC(NS(=O)(=O)c1ccc(C)cc1)C(=O)N(C)CC(=O)Nc1ccccc1Br (stereo not given) please.
Result: inactive

Ask: May I ask what Potency has been recorded for CCc1cccc(NC(=O)COC(=O)c2cc(=O)c3ccccc3o2)c1 ?
Result: inactive

Ask: Given the entry CCN(CC)CCNC(=O)Cn1cnc2sc(C)c(S(=O)(=O)N3CCOCC3)c2c1=O , report its measured Potency.
Result: inactive

----------
Assay details: qHTS Assay for Inhibitors of Hepatitis C Virus (HCV)
Condition label: Huh7.5.1 HCVcc-Cre infection, luciferase reporter, 44 h; series mostly up to 41.8 µM
The campaign covered roughly 340,000 compounds. About 12,000 (3.5%) were called active. Not shown: some 18% with an inconclusive outcome. The call rests on the fitted dose curve; in most records, active means well fitted inhibition curve with a large enough effect; inconclusive means small, poorly fitted or top-dose-only effect, or another doubt; inactive means no such curve, though single readings can be large or run the other way. What follows is part of a selection rich in actives, with near analogues and random picks from the rest.
Lab note: assign the record to one of active, inactive

CC(C)CN(C(=O)CSc1ncnc2sccc12)C1CCS(=O)(=O)C1 (centres undefined)	inactive

Ask: Tell me the assay call for Cc1cc(C(=O)COc2ccc(Br)cc2F)c(C)n1C1CC1 please.
Result: active

Ask: Per the assay record, what outcome was assigned to CC1CC(C)(C)CC2(C1)NC(=O)N(CC(=O)Nc1nccs1)C2=O (centres undefined) ?
Result: inactive

Ask: Name the outcome recorded for CCN1CCc2c(C#N)c(NCc3ccccc3)nc(NCCO)c2C1 in the assay.
Result: inactive

Ask: In this assay, the call recorded for C=CCC(NC(=O)Cc1ccccc1)C(=O)NCCC (centres undefined) was what?
Result: inactive

Ask: Hi team, can someone confirm the assay call for CCOc1ccc(NC(=O)CN(C)C(=O)Cc2sc(C)nc2-c2ccc(F)cc2)cc1OCC ?
Result: inactive

----------
Assay details: qHTS Assay for Inhibitors of Hepatitis C Virus (HCV)
Condition label: Huh7.5.1 HCVcc-Cre infection, luciferase reporter, 44 h; series mostly up to 41.8 µM
Among all 340,000 compounds or so, about 12,000 (3.5%) were called active. Roughly 18% stayed inconclusive and do not appear here. The call rests on the fitted dose curve; in most records, active means well fitted inhibition curve with a large enough effect; inconclusive means small, poorly fitted or top-dose-only effect, or another doubt; inactive means no such curve, though single readings can be large or run the other way. The full list was thinned out, with actives kept by preference.
Outcome (select one): Yes (active), No (inactive)

Illustrative cases are given below, each with its answer.
CN(c1ccccc1)S(=O)(=O)c1cccc(NC(=O)Cc2c(F)cccc2Cl)c1	Yes
CC1CC2=C(CC1/C=N/NC(N)=S)C(C)(C)CCC2 (stereo unspecified)	Yes
CN(C(=O)c1cccc(NC(=O)Cc2ccc(NC(=O)C3CCCN(C(=O)C4CC4)C3)cc2)c1)C1CC1 (stereo unspecified)	No
O=C1CSc2ccc(C(=O)NCc3ccccn3)cc2N1	No

Ask: Which outcome was entered for the molecule NC(=O)c1ccsc1NC(=O)COC(=O)COc1ccc(C=O)cc1 in this test?
Result: No

Ask: Short answer needed: outcome of this test for Cc1ccc(C(=O)O)c(NC=O)c1OCc1ccccc1 ?
Result: No

Ask: In this assay, the call recorded for O=C(Nc1ccccc1-c1ccccc1)c1cccs1 was what?
Result: No

Ask: Could you kindly confirm the outcome this assay logged for CN(C)S(=O)(=O)c1cccc(NC(=O)Cc2ccsc2)c1 ?
Result: No

Ask: What was the test verdict on CCCCc1ccc(NC(=O)CN2C(=O)NC(Cc3ccccc3)C2=O)cc1 (stereo unspecified) ?
Result: No

Ask: Tell me the recorded outcome of this test for COCCNC(=S)N/N=C/c1c(C)[nH]c2ccccc12 .
Result: Yes

Ask: Entry O=C(Nc1ccccc1-c1nnn(CC(=O)N2CCN(c3ccccc3)CC2)n1)c1cccs1 : call = ?
Result: Yes
